Cited source for all entries: patent US4089947A

# Specific area of lesion per record follows
test system: Cladosporium fulvum; assay: Tomato leaf mold control test; type: in vivo; details: 50 ppm; 14 days after inoculation; inoculated 3 days before application
assay readout: Specific area of lesion (%)

OCC1=C[C@H](N[C@H]2C[C@H](CO)[C@@H](O[C@@H]3O[C@@H](CO)[C@@H](O[C@H]4O[C@@H](CO)[C@@H](O)[C@H](O)[C@H]4O)[C@H](O)[C@H]3O)[C@@H](O)[C@H]2O)[C@@H](O)[C@H](O)[C@H]1O : 2
OCC1CC(NC2C=C(COC3OC(CO)C(O)C(O)C3O)C(O)C(O)C2O)C(O)C(O)C1OC1OC(CO)C(O)C(O)C1O (stereo not shown) : 18
OCC1=CC(NC2CC(CO)C(O)C(O)C2O)C(O)C(O)C1O (stereo not shown) : 6
OCC1=C[C@H](NC2C(O)C(O)C(O)C(CO)C2O)[C@H](O)[C@@H](O)[C@@H]1O (stereo partly shown) : 36
